Each entry below carries its recorded abundance fitness.
B1: Zinc finger homeobox protein 3, residues 2147 to 2202; numbered along this chain, Q15911 (parent)
chain: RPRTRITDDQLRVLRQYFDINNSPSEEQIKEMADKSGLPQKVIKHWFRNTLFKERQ

- Variants of: B1
- ASSAY_DETAILS: abundance fitness (aPCA) (normalised: wild type 0, dead -1); higher = more abundant; growth selection in yeast, the domain comes from the species named
- PROTOCOL_CONDITIONS: Homo sapiens
ASSAY_METRIC: abundance fitness

* G37L | -0.278
* R1S | -0.399
* L11G | -0.088
* E27S | 0.024
* Q40W | -0.068
* P2W | -0.679
* H45R | -0.052
* Q10M | -0.27
